study system: furin (Homo sapiens, UniProt P09958)
Construct: made in house; host or cells: Drosophila S2 cells (Invitrogen expression system)
Sequence (P09958 108-794 limits assumed): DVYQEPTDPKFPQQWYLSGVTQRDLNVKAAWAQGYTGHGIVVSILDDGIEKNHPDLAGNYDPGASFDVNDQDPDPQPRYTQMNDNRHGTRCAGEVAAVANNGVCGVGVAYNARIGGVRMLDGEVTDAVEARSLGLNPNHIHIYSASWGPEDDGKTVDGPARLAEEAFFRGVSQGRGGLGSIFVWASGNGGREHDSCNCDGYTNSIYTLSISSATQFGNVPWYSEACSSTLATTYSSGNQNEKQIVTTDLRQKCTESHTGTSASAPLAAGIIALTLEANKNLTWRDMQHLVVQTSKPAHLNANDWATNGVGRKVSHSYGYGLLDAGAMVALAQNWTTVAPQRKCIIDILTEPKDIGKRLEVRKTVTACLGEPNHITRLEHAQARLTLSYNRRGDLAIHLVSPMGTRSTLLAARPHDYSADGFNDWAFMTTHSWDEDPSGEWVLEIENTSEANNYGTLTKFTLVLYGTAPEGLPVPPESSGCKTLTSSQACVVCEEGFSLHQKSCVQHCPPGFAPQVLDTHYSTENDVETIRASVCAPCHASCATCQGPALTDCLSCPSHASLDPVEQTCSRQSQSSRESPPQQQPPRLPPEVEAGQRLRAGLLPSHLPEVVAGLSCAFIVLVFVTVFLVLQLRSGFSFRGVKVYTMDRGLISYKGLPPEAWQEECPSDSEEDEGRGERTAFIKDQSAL
assay remarks: biochemical
measurement conditions: furin, Pyr-RTKR-AMC substrate; optimization of the inhibitory peptides (Table 3); read-out: Ki
Non-standard residues stand in square brackets, D forms with d. Residues, ends and D or L forms follow the SMILES beside them. Ahx = NCCCCCC(=O)O; βAla = NCCC(=O)O
endpoint name: Ki

compound	Ki
C[C@H](NC(=O)[C@H](CCCNC(=N)N)NC(=O)[C@H](CCC(N)=O)NC(=O)[C@@H]1CCCN1C(=O)[C@@H](N)[C@@H](C)O)C(=O)N[C@@H](CCCNC(=N)N)C(=O)N[C@@H](CCCNC(=N)N)C(=O)N[C@@H](CCCNC(=N)N)C(=O)N[C@@H](CCCCN)C(=O)N[C@@H](CCCCN)C(=O)N[C@@H](CCCNC(=N)N)C(=O)N1CCC[C@H]1C(N)=O (H-TPQRARRRKKRP-NH2)	> 100 nM
C[C@H](NC(=O)[C@H](CCCNC(=N)N)NC(=O)[C@H](CCC(N)=O)NC(=O)[C@@H]1CCCN1C(=O)[C@@H](N)[C@@H](C)O)C(=O)N[C@@H](CCCNC(=N)N)C(=O)N[C@@H](CCCNC(=N)N)C(=O)N[C@@H](CCCNC(=N)N)C(=O)N[C@@H](CCCCN)C(=O)N[C@@H](CCCCN)C(=O)N[C@@H](CCCNC(=N)N)C(=O)N[C@@H](CC(N)=O)C(N)=O (H-TPQRARRRKKRN-NH2)	> 100 nM
C[C@H](NC(=O)[C@H](CCCNC(=N)N)NC(=O)[C@H](CCC(N)=O)NC(=O)[C@@H]1CCCN1C(=O)[C@@H](N)[C@@H](C)O)C(=O)N[C@@H](CCCNC(=N)N)C(=O)N[C@@H](CCCNC(=N)N)C(=O)N[C@@H](CCCNC(=N)N)C(=O)N[C@@H](CCCCN)C(=O)N[C@@H](CCCCN)C(=O)N[C@@H](CCCNC(=N)N)C(=O)NCCC(N)=O (H-TPQRARRRKKR[βAla]-NH2)	> 100 nM
C[C@@H](O)[C@H](N)C(=O)N1CCC[C@H]1C(=O)N[C@@H](CCC(N)=O)C(=O)N[C@@H](CCCNC(=N)N)C(=O)NCCCCCC(=O)N[C@@H](CCCNC(=N)N)C(=O)N[C@@H](CCCNC(=N)N)C(=O)N[C@@H](CCCNC(=N)N)C(=O)N[C@@H](CCCCN)C(=O)N[C@@H](CCCCN)C(=O)N[C@@H](CCCNC(=N)N)C(=O)NCC(N)=O	> 100 nM
C[C@H](NC(=O)[C@H](CCCNC(=N)N)NC(=O)[C@H](CCC(N)=O)NC(=O)[C@@H]1CCCN1C(=O)[C@@H](N)[C@@H](C)O)C(=O)N[C@@H](CCCNC(=N)N)C(=O)N[C@@H](CCCNC(=N)N)C(=O)N[C@@H](CCCNC(=N)N)C(=O)N[C@@H](CCCCN)C(=O)N[C@@H](CCCCN)C(=O)N[C@@H](CCCNC(=N)N)C(=O)N[C@@H](Cc1c[nH]c2ccccc12)C(N)=O (H-TPQRARRRKKRW-NH2)	34 nM

Now look at this one.
Value of Ki reported for the compound C[C@H](NC(=O)[C@H](CCCNC(=N)N)NC(=O)[C@H](CCC(N)=O)NC(=O)[C@@H]1CCCN1C(=O)[C@@H](N)[C@@H](C)O)C(=O)N[C@@H](CCCNC(=N)N)C(=O)N[C@@H](CCCNC(=N)N)C(=O)N[C@@H](CCCNC(=N)N)C(=O)N[C@@H](CCCCN)C(=O)N[C@@H](CCCCN)C(=O)N[C@@H](CCCNC(=N)N)C(=O)NCCCCCC(N)=O (H-TPQRARRRKKR[Ahx]-NH2) is > 100 nM

----------
Ki for assorted sequences
study system: PC7
assay remarks: Ki, μM | PC7

# annotated cases, reported Ki shown
1. TPQRARRRKKRW 0.172 µM
2. TPQRARRRKKRY 1.22 µM
3. TPQRARRRKKRF 1.13 µM
4. TPRARRRKKRI 0.135 µM

Value of Ki reported for the sequence `TPQRARRRKKRT` is 0.206 µM

----------
study system: furin (Homo sapiens, UniProt P09958)
Construct: made in house; host or cells: Drosophila S2 cells (Invitrogen expression system)
assay remarks: biochemical
measurement conditions: furin, Pyr-RTKR-AMC substrate; alanine scanning mutagenesis of the H5 furin cleavage sequence (Table 2); read-out: Ki
Non-standard residues stand in square brackets, D forms with d. Residues, ends and D or L forms follow the SMILES beside them. Sar = CNCC(=O)O
endpoint name: Ki

# annotated cases, reported Ki shown
molecule	study system	measured
C[C@H](NC(=O)[C@H](CCCNC(=N)N)NC(=O)[C@H](CCC(=O)O)NC(=O)[C@H](CCCNC(=N)N)NC(=O)[C@@H]1CCCN1C(=O)[C@@H](N)[C@@H](C)O)C(=O)N[C@@H](CCCNC(=N)N)C(=O)N[C@@H](CCCCN)C(=O)N[C@@H](CCCCN)C(=O)N[C@@H](CCCNC(=N)N)C(=O)N(C)CC(N)=O (H-TPRERARKKR[Sar]-NH2)	furin (Homo sapiens, UniProt P09958)	> 0.1 µM
C[C@H](NC(=O)[C@H](C)NC(=O)[C@@H](N)[C@@H](C)O)C(=O)N[C@@H](CCC(=O)O)C(=O)N[C@@H](CCCNC(=N)N)C(=O)N[C@@H](CCCNC(=N)N)C(=O)N[C@@H](CCCNC(=N)N)C(=O)N[C@@H](CCCCN)C(=O)N[C@@H](CCCCN)C(=O)N[C@@H](CCCNC(=N)N)C(=O)NCC(N)=O (H-TAAERRRKKRG-NH2)	furin (Homo sapiens, UniProt P09958)	> 0.1 µM

Now look at this one.
Value of Ki reported for the molecule C[C@H](NC(=O)[C@H](CCCNC(=N)N)NC(=O)[C@H](CCCNC(=N)N)NC(=O)[C@H](CCC(=O)O)NC(=O)[C@H](CCCNC(=N)N)NC(=O)[C@@H]1CCCN1C(=O)[C@@H](N)[C@@H](C)O)C(=O)N[C@@H](CCCCN)C(=O)N[C@@H](CCCCN)C(=O)N[C@@H](CCCNC(=N)N)C(=O)N(C)CC(N)=O (H-TPRERRAKKR[Sar]-NH2) is > 0.1 µM

----------
Ki for assorted sequences
study system: PC5/6
assay remarks: Ki, μM | PC5/6

Value of Ki reported for the sequence `TPQRARRRKKRF` is 0.806 µM

----------
study system: PC4
assay remarks: Ki, μM | PC4
endpoint name: Ki (µM)
Return type: number; implicit unit µM.

1. TPQRARRRKKRY 0.624
2. TPQRARRRKKRF 0.772
3. TPQRARRRKKRT 0.515

Value of Ki reported for the sequence `TPQRARRRKKRW` is 0.952

Value of Ki reported for the sequence `TPRARRRKKRI` is 0.562

----------
study system: furin (Homo sapiens, UniProt P09958)
Construct: made in house; host or cells: Drosophila S2 cells (Invitrogen expression system)
assay remarks: biochemical
measurement conditions: furin, Pyr-RTKR-AMC substrate; optimization of the inhibitory peptides (Table 3); read-out: Ki
Residues, ends and D or L forms follow the SMILES beside them.
pKi for assorted molecules
Give only the number. pKi is defined as minus log10 of concentration in molar units.

molecule	study system	pKi
C[C@H](NC(=O)[C@H](CCCNC(=N)N)NC(=O)[C@H](CCC(N)=O)NC(=O)[C@@H]1CCCN1C(=O)[C@@H](N)[C@@H](C)O)C(=O)N[C@@H](CCCNC(=N)N)C(=O)N[C@@H](CCCNC(=N)N)C(=O)N[C@@H](CCCNC(=N)N)C(=O)N[C@@H](CCCCN)C(=O)N[C@@H](CCCCN)C(=O)N[C@@H](CCCNC(=N)N)C(=O)N[C@H](C(N)=O)[C@@H](C)O (H-TPQRARRRKKRT-NH2)	furin (Homo sapiens, UniProt P09958)	7.48

Value of pKi reported for the molecule C[C@H](NC(=O)[C@H](CCCNC(=N)N)NC(=O)[C@H](CCC(N)=O)NC(=O)[C@@H]1CCCN1C(=O)[C@@H](N)[C@@H](C)O)C(=O)N[C@@H](CCCNC(=N)N)C(=O)N[C@@H](CCCNC(=N)N)C(=O)N[C@@H](CCCNC(=N)N)C(=O)N[C@@H](CCCCN)C(=O)N[C@@H](CCCCN)C(=O)N[C@@H](CCCNC(=N)N)C(=O)N[C@@H](CC(=O)O)C(N)=O (H-TPQRARRRKKRD-NH2) is 7.30

----------
study system: furin (Homo sapiens, UniProt P09958)
Construct: made in house; host or cells: Drosophila S2 cells (Invitrogen expression system)
assay remarks: biochemical
measurement conditions: furin, Pyr-RTKR-AMC substrate; alanine scanning mutagenesis of the H5 furin cleavage sequence (Table 2); read-out: Ki
Non-standard residues stand in square brackets, D forms with d. Residues, ends and D or L forms follow the SMILES beside them. Sar = CNCC(=O)O
endpoint name: Ki

molecule	Ki
C[C@H](NC(=O)[C@H](C)NC(=O)[C@H](CCC(=O)O)NC(=O)[C@H](CCCNC(=N)N)NC(=O)[C@@H]1CCCN1C(=O)[C@@H](N)[C@@H](C)O)C(=O)N[C@@H](CCCNC(=N)N)C(=O)N[C@@H](CCCCN)C(=O)N[C@@H](CCCCN)C(=O)N[C@@H](CCCNC(=N)N)C(N)=O (H-TPREAARKKR-NH2)	> 100 nM
C[C@H](NC(=O)[C@H](C)NC(=O)[C@@H]1CCCN1C(=O)[C@@H](N)[C@@H](C)O)C(=O)N[C@@H](C)C(=O)N[C@@H](CCCNC(=N)N)C(=O)N[C@@H](CCCNC(=N)N)C(=O)N[C@@H](CCCCN)C(=O)N[C@@H](CCCCN)C(=O)N[C@@H](CCCNC(=N)N)C(=O)N(C)CC(N)=O (H-TPAAARRKKR[Sar]-NH2)	> 100 nM

Now look at this one.
Case C[C@H](NC(=O)[C@H](C)NC(=O)[C@@H]1CCCN1C(=O)[C@@H](N)[C@@H](C)O)C(=O)N[C@@H](C)C(=O)N[C@@H](CCCNC(=N)N)C(=O)N[C@@H](CCCNC(=N)N)C(=O)N[C@@H](CCCCN)C(=O)N[C@@H](CCCCN)C(=O)N[C@@H](CCCNC(=N)N)C(N)=O (H-TPAAARRKKR-NH2) , furin (Homo sapiens, UniProt P09958), Ki recorded as > 100 nM
